tested on: ARK5; construct: gene NUAK1; conditions: concentration: 1 μM, replicates: in singlicate; n = 1;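 also: KINOMEscan kinase panel screen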
Binary classification by %Inh, with 5% as an inclusive lower bound for T; all other cases are F.

Kindly determine if %Inh recorded for O=C(Nc1n[nH]c2nc(-c3ccc(O)cc3)ccc12)C1CC1 [SB-710363] is above or exactly 5%.
F

Kindly determine if %Inh recorded for Cl.Cl.NCC(NC(=O)c1cc(-c2ccccc2)c(-c2ccnc3[nH]ccc23)s1)c1ccccc1 (stereo not shown) [GSK1321561] is above or exactly 5%.
T

Kindly determine if %Inh recorded for COc1ccc(Nc2nccc(NCCNC(=O)c3cc4ccccc4s3)n2)cc1 [GSK1379896] is above or exactly 5%.
F

Kindly determine if %Inh recorded for COc1cccc(C(=O)Nc2cccc(Oc3ccc4nc(NC(=O)C5CC5)cn4n3)c2)c1 is above or exactly 5%.
F

Kindly determine if %Inh recorded for CC(C)c1nc(-c2cccc(NS(=O)(=O)c3c(F)cccc3F)c2F)c(-c2ccnc(Nc3ccc(N4CCOCC4)nc3)n2)s1 [GSK2008607] is above or exactly 5%.
F

Kindly determine if %Inh recorded for COc1ccc(Nc2nccc(N3CCC(NC(=O)Nc4cccc(OC)c4)C3)n2)cc1 (stereo not shown) [GSK1379742] is above or exactly 5%.
T

Kindly determine if %Inh recorded for COc1cc(Nc2ncc3c(C)nc(-c4cc5ccccc5[nH]4)n3n2)cc(OC)c1OC [GW869516] is above or exactly 5%.
F

Kindly determine if %Inh recorded for Cc1ccc(C(=O)N2CC[C@@H](O)C2)cc1-n1c(C)cc(OCc2ccc(F)cc2F)c(Br)c1=O is above or exactly 5%.
F

Kindly determine if %Inh recorded for COc1cc(Nc2nccc(N3CCC(NC(=O)c4cc5ccccc5s4)C3)n2)cc(OC)c1OC (stereo not shown) [GSK1379760] is above or exactly 5%.
T

Kindly determine if %Inh recorded for CC(=O)N1CCN(c2ccc(Nc3nccc(-c4sc(C(C)C)nc4-c4cccc(NS(=O)(=O)c5cccc(Cl)c5)c4)n3)cn2)CC1 [GSK1660437] is above or exactly 5%.
F

Kindly determine if %Inh recorded for CCc1ccc(-c2ccc3c(c2)-c2c(cnn2C)S(=O)(=O)N3C)cc1 is above or exactly 5%.
F

Kindly determine if %Inh recorded for CCS(=O)(=O)c1ccc(OC)c(Nc2nccc(-c3c(-c4cccc(NC(=O)c5c(F)cccc5F)c4)nn4ncccc34)n2)c1 [GSK326180] is above or exactly 5%.
T

====

Answer each item with its documented %Inh.
system: SIK2; settings: concentration: 1 μM, replicates: in singlicate; n = 1
Use % as the unit, but write only the number.

// lookup %Inh | system=SIK2 | key= Cc1ccc(S(=O)(=O)Nc2ccc(Nc3nccc(Nc4cccc5[nH]ncc45)n3)cc2)cc1
67

// lookup %Inh | system=SIK2 | key= O=C(Nc1cccc(-c2nn3ccccc3c2-c2ccnc(Nc3cccc(C(F)(F)F)c3)n2)c1)c1c(F)cccc1F
0

// lookup %Inh | system=SIK2 | key= Cl.c1ccc(-c2ccc3c(Nc4ccc5[nH]ccc5c4)ccnc3c2)nc1
0

// lookup %Inh | system=SIK2 | key= O=C(Nc1n[nH]c2nc(-c3ccc(O)cc3)ccc12)C1CC1
0

====

system: MST3; construct: gene STK24; details: concentration: 1 μM, replicates: in singlicate; n = 1
Endpoint name: %Inh (%)
Use % as the unit, but write only the number.

Can you share its %Inh? I mean this molecule: CNC(=O)c1ccccc1Nc1nc(Nc2ccc(N3CCOCC3)cc2)ncc1Cl.Cl [GSK1576028]
61

Can you share its %Inh? I mean this molecule: COc1cc(Nc2ncc3c(C)nc(-c4cc5ccccc5[nH]4)n3n2)cc(OC)c1OC [GW869516]
0

Can you share its %Inh? I mean this molecule: Cc1occc1-c1ncc(OC[C@@H](N)Cc2c[nH]c3ccccc23)cc1-c1ccc2[nH]nc(C)c2c1.O=C(O)C(F)(F)F [GSK682037]
55

Can you share its %Inh? I mean this molecule: Cc1ccc(C(=O)Nc2ccc(Nc3ccnc4cc(-c5nccs5)ccc34)cc2O)cc1.Cl [GW494702]
3

Can you share its %Inh? I mean this molecule: COCCOCCOc1cc2ncc3c4ccc(C#N)cc4[nH]c3c2cc1OC
0

Can you share its %Inh? I mean this molecule: CN(C)S(=O)(=O)c1cc(-c2ccc3nccc(-c4cccc(S(N)(=O)=O)c4)c3c2)cnc1N [GSK1669921]
5

Can you share its %Inh? I mean this molecule: Cn1cc(-c2[nH]c3cc(NC(=O)[C@H](N)C4CCCCC4)cc4c3c2C=NNC4=O)cn1
55

Can you share its %Inh? I mean this molecule: CN1CCN(CCCNc2nccc(-c3c(-c4ccc(F)cc4)nn4cc(C(F)(F)F)ccc34)n2)CC1 [GW621581]
19

Can you share its %Inh? I mean this molecule: CCc1ccc(-c2ccc3c(c2)-c2c(cnn2C)S(=O)(=O)N3C)cc1
0

Can you share its %Inh? I mean this molecule: COc1ccc(Nc2nccc(NCCNC(=O)c3cc4ccccc4s3)n2)cc1 [GSK1379896]
0

Can you share its %Inh? I mean this molecule: Cl.Cl.NCC(NC(=O)c1cc(-c2ccccc2)c(-c2ccnc3[nH]ccc23)s1)c1ccccc1 (stereo not drawn) [GSK1321561]
0

Can you share its %Inh? I mean this molecule: C[C@@H]1CC[C@@H](C(=O)Nc2ccccc2)CN1c1cc(-c2ccc3c(N)n[nH]c3c2)nc(N)n1 [GSK2286062]
11

Can you share its %Inh? I mean this molecule: COc1cc(Nc2nccc(-c3c(-c4cccc(NC(=O)c5c(F)cccc5F)c4)nn4ccccc34)n2)cc(OC)c1OC [GSK323521]
33

Can you share its %Inh? I mean this molecule: Cn1cc(-c2ccc3c(c2)CCN3C(=O)Cc2cccc(F)c2)c2c(N)ncnc21 [GSK2603358]
15

Can you share its %Inh? I mean this molecule: COc1cc2c(cc1OCCN1CCNCC1)ncc1c3ccc(C#N)cc3[nH]c21
12

Can you share its %Inh? I mean this molecule: CN(c1ccc(NC(=O)Nc2cc(C(F)(F)F)ccc2F)cc1)c1ccnc(Nc2ccc(S(N)(=O)=O)cc2)n1 [GW809893]
29

Can you share its %Inh? I mean this molecule: O=C(NC1CCN(c2ccnc(Nc3ccc(F)cc3)n2)C1)c1cc2ccccc2s1 (stereo not drawn) [GSK1379716]
0

Can you share its %Inh? I mean this molecule: Cl.Cl.NCC(NCc1ccc(-c2ccnc3[nH]ccc23)s1)c1ccccc1 (stereo not drawn) [GSK1321565]
0

Can you share its %Inh? I mean this molecule: Cl.c1ccc(-c2ccc3c(Nc4ccc5[nH]ncc5c4)ccnc3c2)nc1 [GW440137]
0

Can you share its %Inh? I mean this molecule: c1ccc(-c2cnc3nccnn23)cc1 [AH20685]
0

Can you share its %Inh? I mean this molecule: Nc1ncc(-c2cccnc2)c2scc(-c3ccc4c(c3)CCN4C(=O)Cc3ccccc3)c12 [GSK683281]
8

Can you share its %Inh? I mean this molecule: O=C(Nc1n[nH]c2nc(-c3ccc(O)cc3)ccc12)C1CC1 [SB-710363]
0

Can you share its %Inh? I mean this molecule: COC(=O)Nc1nc2cc(Oc3ccc(NC(=O)Nc4cc(C(F)(F)F)ccc4F)cn3)ccc2[nH]1.Cl.Cl [GW681170]
0

Can you share its %Inh? I mean this molecule: O=C(Nc1cccc(-c2nn3ncccc3c2-c2ccnc(Nc3ccccc3)n2)c1)c1c(F)cccc1F [GSK198271]
12

Can you share its %Inh? I mean this molecule: CN(C)Cc1ccc(-c2ccc3c(Nc4ccc(Oc5ccccn5)cc4)ccnc3c2)o1 [GW567148]
0

Can you share its %Inh? I mean this molecule: CCCCc1nn2ncccc2c1-c1ccnc(Nc2ccc(N3CCN(C)CC3)cc2)n1 [GW684941]
1

Can you share its %Inh? I mean this molecule: O=C(Nc1n[nH]c2cc(-c3ccoc3)ccc12)C1CC1 [SB-738481]
0

Can you share its %Inh? I mean this molecule: O=C(Nc1cccc(Oc2ccc3nc(NC(=O)C4CC4)cn3n2)c1)c1ccccc1C(F)(F)F
0

Can you share its %Inh? I mean this molecule: CC(=O)N1CCN(c2ccc(Nc3nccc(-c4sc(C(C)C)nc4-c4cccc(NS(=O)(=O)c5cccc(Cl)c5)c4)n3)cn2)CC1 [GSK1660437]
6

Can you share its %Inh? I mean this molecule: Cc1ccc(S(=O)(=O)Nc2ccc(Nc3nccc(Nc4cccc5[nH]ncc45)n3)cc2)cc1 [GSK581271]
11

Can you share its %Inh? I mean this molecule: Cc1ccc(F)c(C(=O)Nc2cccc(-c3nn4ccccc4c3-c3ccnc(Nc4cccc(F)c4)n3)c2)c1F [GSK361061]
2

Can you share its %Inh? I mean this molecule: O=c1[nH]cc(-c2ccc(N3CCOCC3)cc2)c2sc(-c3cn[nH]c3)cc12 [GSK2276055]
29

Can you share its %Inh? I mean this molecule: c1ccc(-c2n[nH]cc2Nc2ccnc3ccccc23)nc1 [GW694077]
0

Data origin, for the record: paper PMC5540273
